- EXPERIMENTAL SYSTEM: DPIV (dipeptidyl peptidase IV) (Sus scrofa, UniProt P22411)
- Construct: The hydrolysis of peptide analogues by purified kidney DPIV was studied as described previously [12]; from tissue; host or cells: kidney
- Sequence (P22411 whole entry): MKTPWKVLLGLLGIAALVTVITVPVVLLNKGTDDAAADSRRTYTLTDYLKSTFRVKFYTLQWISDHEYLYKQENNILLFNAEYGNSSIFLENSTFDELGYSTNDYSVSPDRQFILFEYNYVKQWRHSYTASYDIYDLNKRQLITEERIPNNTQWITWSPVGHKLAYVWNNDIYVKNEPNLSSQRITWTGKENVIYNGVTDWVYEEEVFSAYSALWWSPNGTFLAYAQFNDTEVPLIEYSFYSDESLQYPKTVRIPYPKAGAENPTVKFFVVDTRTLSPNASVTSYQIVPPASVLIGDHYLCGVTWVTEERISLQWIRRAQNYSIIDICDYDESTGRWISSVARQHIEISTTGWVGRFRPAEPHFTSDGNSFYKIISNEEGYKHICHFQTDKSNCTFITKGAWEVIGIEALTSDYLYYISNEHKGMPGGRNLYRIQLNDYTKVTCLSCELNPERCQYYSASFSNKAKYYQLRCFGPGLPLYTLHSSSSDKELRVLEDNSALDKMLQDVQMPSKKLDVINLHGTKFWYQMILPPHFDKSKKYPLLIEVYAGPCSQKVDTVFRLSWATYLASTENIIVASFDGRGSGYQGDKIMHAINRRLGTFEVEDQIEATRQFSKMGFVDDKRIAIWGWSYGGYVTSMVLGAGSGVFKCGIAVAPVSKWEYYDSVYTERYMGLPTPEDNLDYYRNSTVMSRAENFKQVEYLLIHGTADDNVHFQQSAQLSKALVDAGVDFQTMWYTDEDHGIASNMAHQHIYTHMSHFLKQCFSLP
- ASSAY COMMENT: Determination of DPIV resistance by MALDI-TOF mass spectrometry
- Format: in vitro ADME
- TEST CONTEXT: purified kidney DPIV, 0.04 M Tris buffer pH 7.6, up to 24 h, MALDI-TOF MS; read-out: half life after incubation with DP IV
Ends that are not written are not given here.
RECORDED METRIC: half-life (min)

>  <SUBSTANCE>
ISDYSIAMDKIRQQDFVNWLLAQK-NH2 [GIP7-30a, reference compound]

>  <RECORDED METRIC>
half-life

>  <RESULT QUALIFIER>
=

>  <MEASURED NUMBER>
130

$$$$
>  <SUBSTANCE>
YAEGTF-NH2 [GIP1-6a]

>  <RECORDED METRIC>
half-life

>  <RESULT QUALIFIER>
>

>  <MEASURED NUMBER>
7.5

$$$$
>  <SUBSTANCE>
YGEGTFISDYSIAMDKIRQQDFVNWLLAQK-NH2 [Gly^2-GIP1-30a]

>  <RECORDED METRIC>
half-life

>  <RESULT QUALIFIER>
=

>  <MEASURED NUMBER>
150

$$$$
>  <SUBSTANCE>
YAEGTFISDYSIAMDKIRQQDFVNWLLAQK-NH2 [GIP1-30a, reference compound]

>  <RECORDED METRIC>
half-life

>  <RESULT QUALIFIER>
<

>  <MEASURED NUMBER>
15

$$$$
>  <SUBSTANCE>
YPEGTF-NH2 [Pro^2-GIP1-6a]

>  <RECORDED METRIC>
half-life

>  <RESULT QUALIFIER>
>

>  <MEASURED NUMBER>
7.5

$$$$
>  <SUBSTANCE>
YVEGTFISDYSIAMDKIRQQDFVNWLLAQK-NH2 [Val^2-GIP1-30a]

>  <RECORDED METRIC>
half-life

>  <RESULT QUALIFIER>
=

>  <MEASURED NUMBER>
298

$$$$
>  <SUBSTANCE>
YSEGTFISDYSIAMDKIRQQDFVNWLLAQK-NH2 [Ser^2-GIP1-30a]

>  <RECORDED METRIC>
half-life

>  <RESULT QUALIFIER>
=

>  <MEASURED NUMBER>
137

$$$$

Values compiled from patent US20050137135A1.
